The values you see were collected from patent US7662832B2.

# target: Proton Pump (H^+/K^+-ATPase) (Sus scrofa, UniProt P19156)
# Sequence (P19156 2-1034 limits assumed): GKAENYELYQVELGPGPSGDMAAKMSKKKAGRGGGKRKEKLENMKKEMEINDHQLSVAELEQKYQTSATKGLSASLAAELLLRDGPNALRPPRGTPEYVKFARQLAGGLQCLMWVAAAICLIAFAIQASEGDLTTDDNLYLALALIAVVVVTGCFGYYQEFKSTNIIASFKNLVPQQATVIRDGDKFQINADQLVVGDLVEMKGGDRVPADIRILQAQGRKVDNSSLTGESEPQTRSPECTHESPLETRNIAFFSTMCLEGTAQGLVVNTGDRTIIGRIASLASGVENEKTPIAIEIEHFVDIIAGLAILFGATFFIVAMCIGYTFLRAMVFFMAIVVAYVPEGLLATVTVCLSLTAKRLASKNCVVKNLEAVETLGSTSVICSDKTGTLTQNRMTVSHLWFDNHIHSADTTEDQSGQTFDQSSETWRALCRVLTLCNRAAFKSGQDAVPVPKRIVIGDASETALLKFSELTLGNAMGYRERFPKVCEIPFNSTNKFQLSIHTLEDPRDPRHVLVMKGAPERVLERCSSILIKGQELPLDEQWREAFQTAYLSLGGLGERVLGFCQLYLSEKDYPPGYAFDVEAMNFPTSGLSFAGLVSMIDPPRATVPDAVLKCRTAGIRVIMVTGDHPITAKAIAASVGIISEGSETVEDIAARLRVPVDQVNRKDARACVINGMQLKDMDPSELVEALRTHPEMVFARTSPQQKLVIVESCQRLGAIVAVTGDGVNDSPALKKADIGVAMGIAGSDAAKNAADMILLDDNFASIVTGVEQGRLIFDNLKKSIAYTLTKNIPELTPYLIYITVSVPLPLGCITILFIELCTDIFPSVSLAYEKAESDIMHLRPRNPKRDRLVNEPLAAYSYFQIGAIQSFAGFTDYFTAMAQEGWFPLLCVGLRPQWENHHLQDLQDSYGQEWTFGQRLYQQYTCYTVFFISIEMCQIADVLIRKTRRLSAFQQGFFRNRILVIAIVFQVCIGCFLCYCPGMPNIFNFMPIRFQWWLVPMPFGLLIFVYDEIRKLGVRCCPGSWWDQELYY
# Sequence (P18434 whole entry partner): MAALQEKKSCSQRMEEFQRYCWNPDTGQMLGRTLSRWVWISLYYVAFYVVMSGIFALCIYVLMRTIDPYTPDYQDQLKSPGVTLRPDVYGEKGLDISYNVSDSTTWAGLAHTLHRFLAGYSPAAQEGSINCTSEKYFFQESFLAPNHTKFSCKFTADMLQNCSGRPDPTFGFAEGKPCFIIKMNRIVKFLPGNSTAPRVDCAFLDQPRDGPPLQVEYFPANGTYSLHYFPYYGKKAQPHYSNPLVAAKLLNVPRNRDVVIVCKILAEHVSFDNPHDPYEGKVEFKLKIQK
# testDescription: Inhibitory effects on proton pump (H^+/K^+-ATPase) activity
# conditionNotes: hog gastric vesicles; K^+ stimulated H^+/K^+-ATPase activity; 30 minutes at 37° C.
pIC50: −log10 of the molar value. Where a name gives a salt, the structure may show the parent alone.
Returns MET if the recorded pIC50 is greater than or equal to 7, and NOT MET otherwise.

[Q] Has CCn1c(C)c(C)c2cc(C(=O)N3CCN(c4ccccc4)CC3)nc(N3CCc4ccccc4C3)c21 [Example 810, hydrochloride] a recorded pIC50 greater than or equal to 7?
[A] NOT MET

[Q] Has Cc1c(C)n(Cc2ccccc2)c2c(N3CCc4ccccc4C3)nc(C(=O)N3CCN(C)CC3)cc12 [Example 819, hydrochloride] a recorded pIC50 greater than or equal to 7?
[A] MET

[Q] Has Cc1ccccc1CNc1nccc2c(C)c(C)n(CC(C)C)c12.Cl [Example 210, hydrochloride] a recorded pIC50 greater than or equal to 7?
[A] MET

[Q] Has COCCn1c(C)c(C)c2cc(C(=O)N3CCN(C)CC3)nc(N3CCc4ccccc4C3)c21 [Example 821, hydrochloride] a recorded pIC50 greater than or equal to 7?
[A] MET

[Q] Has CC(C)=CCn1c(C)c(C)c2ccnc(N3CCc4ccc(Cl)cc4C3C)c21 (stereo not shown) [Example 534, hydrochloride] a recorded pIC50 greater than or equal to 7?
[A] NOT MET
